Biological target: T1, human Claudin 18.2 (hCLDN18.2) (human, UniProt P56856-2 1-261)
T1 construct: whole, on cells; also called CLDN18A2; claudin 18 splice variant 2
Experiment: FACS, PDX-hCLDN18.2 gastric cancer tumor tissue-derived cells
pEC50: −log10 of the molar value.
Measured pEC50 accompanies every entry in the list below.
RECORDED_ENDPOINT: pEC50

ch-229C9 (antibody, V domains shown, also called chimeric antibody of clone 229C9) VH: DVQLQESGPDLVKPSQSLSLICTVTGYSITSGYSWHWIRQFPGNKLEWMGYIHYSGGTNYNPSLKSRISFTRDTSKNQFFLQLNSVTTEDTATYYCARLERGNSFAYWGQGTLVTVSA VL: DIVMTQSPSSLTVTAGEKVTMSCKSTQSLLNSGNQKNYLTWYQQKPGQPPKLLIYWASTRESGVPDRFTGSGSGTDFTLTISSLQAEDLAVYYCQNDYFYPFTFGSGTKLEIK | 7.97
ch-37G8 (antibody, V domains shown, also called chimeric antibody of clone 37G8) VH: EVQLQQSGPVLVKPGASVKMSCKASGYTFSDYHMNWVKQSHGKSLEWVGLINPYNGGIRFNQKFKGKATLTVDKSSSTAYMELNSLTSEDSAVYYCATIYYGNSFAYWGQGTLVTVSA VL: DIVMTQSPSSLTVTAGEKVTLTCKSGQSLLNSGNQKNYLTWYQQKPGQPPKLLIYWASTRESGVPDRFTGSGSGTDFTLTISGVQAEDLAVYYCQNDYFYPYTFGGGTKLEIK | 8.15
